Where do these numbers come from? They come from patent US20130210851A1.

assay: Solubility of the saturated solution in aqueous media; format: physicochemical; conditions: thermodynamic from solid; FaSSIF (Fasted State Simulated Intestinal); intrinsic pH 6.5; 48 h shaking at room temperature; read-out: solubility RT - values

>  <molecule>
CC(C)c1nc2c(c3c1[C@@H](c1ccc(C(F)(F)F)cc1)OC31CCOCC1)[C@@H](O)CC(C)(C)C2.Cl [crystalline hydrochloride salt form]

>  <solubility at 48 h (µg/mL)>
20

$$$$

====

assay: Solubility of the saturated solution in aqueous media; format: physicochemical; conditions: acetate buffer, aqueous buffer, thermodynamic from solid; Acetate pH 5.0; intrinsic pH 5.3; 48 h shaking at room temperature; read-out: solubility RT - values

>  <molecule>
CC(C)c1nc2c(c3c1[C@@H](c1ccc(C(F)(F)F)cc1)OC31CCOCC1)[C@@H](O)CC(C)(C)C2.Cl [crystalline hydrochloride salt form]

>  <solubility at 48 h, µg/mL>
6

$$$$
